Origin of measurements: patent US12178842B2

target: PCSK9 (Homo sapiens, UniProt Q8NBP7); construct: biotin (biotinylated); purchased; assay: PCSK9 Alexa FRET Ultra TR-FRET assay; assay type: binding
Sequence (Q8NBP7 153-692): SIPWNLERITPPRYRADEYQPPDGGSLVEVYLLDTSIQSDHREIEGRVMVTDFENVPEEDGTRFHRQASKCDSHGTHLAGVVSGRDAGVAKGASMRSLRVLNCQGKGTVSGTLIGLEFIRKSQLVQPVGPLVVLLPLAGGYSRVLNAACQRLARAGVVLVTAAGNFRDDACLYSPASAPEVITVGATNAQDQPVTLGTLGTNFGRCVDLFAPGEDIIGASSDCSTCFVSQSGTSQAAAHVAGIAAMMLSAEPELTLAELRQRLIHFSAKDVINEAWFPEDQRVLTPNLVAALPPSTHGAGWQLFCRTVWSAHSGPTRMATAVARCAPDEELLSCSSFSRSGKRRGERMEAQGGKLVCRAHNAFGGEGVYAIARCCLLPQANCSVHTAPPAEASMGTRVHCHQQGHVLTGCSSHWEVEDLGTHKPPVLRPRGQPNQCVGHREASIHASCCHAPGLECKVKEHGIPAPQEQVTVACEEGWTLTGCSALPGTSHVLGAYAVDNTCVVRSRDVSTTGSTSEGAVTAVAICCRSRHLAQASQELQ
pKi: −log10 of the molar value.
parameter: pKi

1. COc1ccc(C[C@@H]2NC(=O)[C@H]([C@@H](C)O)NC(=O)[C@@H]3[C@@H]4CCN3C(=O)[C@@H]3Cc5cn(c6ccc(F)cc56)CCCCCCN(Cc5ccc(cc5)CCNC(=O)[C@]5(C)CCCN5C2=O)C(=O)CCC(=O)N[C@@H](C)C(=O)N[C@H](CNC(=O)COCCOCCNC(=O)COCCOCCNC(=O)CC[C@H](NC(=O)CC[C@H](NC(=O)CCOCCOCC[N+](C)(C)CCNC(=O)CCCCCCCCCCCCCCCCC(=O)O)C(=O)O)C(=O)O)C(=O)N[C@@H](Cc2cccc(c2)CNC(=O)CO4)C(=O)N3)cc1 [Ex-9] :: 11.15
2. COc1ccc(C[C@@H]2NC(=O)[C@H]([C@@H](C)O)NC(=O)[C@@H]3[C@@H]4CCN3C(=O)[C@@H]3Cc5cn(c6ccc(F)cc56)C/C=C/CCCN(Cc5ccc(cc5)CCNC(=O)[C@]5(C)CCCN5C2=O)C(=O)CCC(=O)N[C@@H](C)C(=O)N[C@H](CNC(=O)CCOCCOCC[N+](C)(C)CCNC(=O)COCCOCCNC(=O)COCCOCCNC(=O)CC[C@H](NC(=O)CCCCCCCCCCCCCCC(=O)O)C(=O)O)C(=O)N[C@@H](Cc2cccc(c2)CNC(=O)CO4)C(=O)N3)cc1 [compound 46] :: 12.00
3. COc1ccc(C[C@@H]2NC(=O)[C@H]([C@@H](C)O)NC(=O)[C@@H]3[C@@H]4CCN3C(=O)[C@@H]3Cc5cn(c6ccc(F)cc56)CCCCCCN(Cc5ccc(cc5)CCNC(=O)[C@]5(C)CCCN5C2=O)C(=O)CCC(=O)N[C@@H](C)C(=O)N[C@H](CNC(=O)COCCOCC[N+](C)(C)CCNC(=O)COCCOCCNC(=O)COCCOCCNC(=O)CC[C@H](NC(=O)CCCCCCCCOCCCCCCCCC(=O)O)C(=O)O)C(=O)N[C@@H](Cc2cccc(c2)CNC(=O)CO4)C(=O)N3)cc1 [Ex-50] :: 11.30
4. COc1ccc(C[C@@H]2NC(=O)[C@H]([C@@H](C)O)NC(=O)[C@@H]3[C@@H]4CCN3C(=O)[C@@H]3Cc5cn(c6ccc(F)cc56)CCCCCCN(Cc5ccc(cc5)CCNC(=O)[C@]5(C)CCCN5C2=O)C(=O)CCC(=O)N[C@@H](C)C(=O)N[C@H](CNC(=O)CCC[N+](C)(C)CCNC(=O)COCCOCCNC(=O)CC[C@H](NC(=O)CC[C@H](NC(=O)CCCCCCCCCCCCCCCCC(=O)O)C(=O)O)C(=O)O)C(=O)N[C@@H](Cc2cccc(c2)CNC(=O)CO4)C(=O)N3)cc1 [Ex-14] :: 11.30
5. COc1ccc(C[C@@H]2NC(=O)[C@H]([C@@H](C)O)NC(=O)[C@@H]3[C@@H]4CCN3C(=O)[C@@H]3Cc5cn(c6ccc(F)cc56)CCCCCCN(Cc5ccc(cc5)CCNC(=O)[C@]5(C)CCCN5C2=O)C(=O)CCC(=O)N[C@@H](C)C(=O)N[C@H](CNC(=O)COCCOCCNC(=O)CCCCC[N+](C)(C)CCNC(=O)COCCOCCNC(=O)COCCOCCNC(=O)CC[C@H](NC(=O)CCCCCCCCCCCCCCCCC(=O)O)C(=O)O)C(=O)N[C@@H](Cc2cccc(c2)CNC(=O)CO4)C(=O)N3)cc1 [Ex-6] :: 10.92
6. COc1ccc(C[C@@H]2NC(=O)[C@H]([C@@H](C)O)NC(=O)[C@@H]3[C@@H]4CCN3C(=O)[C@@H]3Cc5cn(c6ccc(F)cc56)CCCCCCN(Cc5ccc(cc5)CCNC(=O)[C@]5(C)CCCN5C2=O)C(=O)CCC(=O)N[C@@H](C)C(=O)N[C@H](CNC(=O)CCOCCOCC[N+](C)(C)CCNC(=O)COCCOCCNC(=O)COCCOCCNC(=O)CC[C@H](NC(=O)CCCCCCCCCCCCCCC(=O)O)C(=O)O)C(=O)N[C@@H](Cc2cccc(c2)CNC(=O)CO4)C(=O)N3)cc1 [Example 4] :: 11.52
7. COc1ccc(C[C@@H]2NC(=O)[C@H]([C@@H](C)O)NC(=O)[C@@H]3[C@@H]4CCN3C(=O)[C@@H]3Cc5cn(c6ccc(F)cc56)CCCCCCN(Cc5ccc(cc5)CCNC(=O)[C@]5(C)CCCN5C2=O)C(=O)CCC(=O)N[C@@H](C)C(=O)N[C@H](CNC(=O)CCOCCOCC[N+](C)(C)CCNC(=O)COCCOCCNC(=O)COCCOCCNC(=O)C[C@H](NC(=O)CCCCCCCCCCCCCCCCC(=O)O)C(=O)O)C(=O)N[C@@H](Cc2cccc(c2)CNC(=O)CO4)C(=O)N3)cc1 [Ex-15] :: 11.30
8. COc1ccc(C[C@@H]2NC(=O)[C@H]([C@@H](C)O)NC(=O)[C@@H]3[C@@H]4CCN3C(=O)[C@@H]3Cc5cn(c6ccc(F)cc56)CCCCCCN(Cc5ccc(cc5)CCNC(=O)[C@]5(C)CCCN5C2=O)C(=O)CCC(=O)N[C@@H](CNC(=O)COCCOCC[N+](C)(C)CCNC(=O)COCCOCCNC(=O)COCCOCCNC(=O)CC[C@H](NC(=O)CCCCCCCCOCCCCCCCCC(=O)O)C(=O)O)C(=O)N[C@H](C)C(=O)N[C@@H](Cc2cccc(c2)CNC(=O)CO4)C(=O)N3)cc1 [Ex-62] :: 10.42
9. COc1ccc(C[C@@H]2NC(=O)[C@H]([C@@H](C)O)NC(=O)[C@@H]3[C@@H]4CCN3C(=O)[C@@H]3Cc5cn(c6ccc(F)cc56)CCCCCCN(Cc5ccc(cc5)CCNC(=O)[C@]5(C)CCCN5C2=O)C(=O)CCC(=O)N[C@@H](C)C(=O)N[C@H](CNC(=O)COCCOCCNC(=O)COCCOCCNC(=O)CC[C@H](NC(=O)CCCCC[N+](C)(C)CCNC(=O)CCCCCCCCCCCCCCCCC(=O)O)C(=O)O)C(=O)N[C@@H](Cc2cccc(c2)CNC(=O)CO4)C(=O)N3)cc1 [Ex-5] :: 11.15
10. COc1ccc(C[C@@H]2NC(=O)[C@H]([C@@H](C)O)NC(=O)[C@@H]3[C@@H]4CCN3C(=O)[C@@H]3Cc5cn(c6ccc(F)cc56)CCCCCCN(Cc5ccc(cc5)CCNC(=O)[C@]5(C)CCCN5C2=O)C(=O)CCC(=O)N[C@@H](C)C(=O)N[C@H](CNC(=O)CCCCC[N+](C)(C)CCNC(=O)COCCOCCNC(=O)COCCOCCNC(=O)CC[C@H](NC(=O)CCCCCCCCCCCCCCCCC(=O)O)C(=O)O)C(=O)N[C@@H](Cc2cccc(c2)CNC(=O)CO4)C(=O)N3)cc1 [Example 2] :: 11.22
